Measurement notes: pH-dependent dissolution profile (equilibrium solubility) of ART-001 in buffers pH 1 to 10, HPLC
Assay type: physicochemical
Cond: bicarbonate buffer, aqueous buffer, thermodynamic from solid; room temperature; start pH 10.00, end pH 10.07; read-out: Solubility

{"columns": ["Smiles entry", "Units", "solubility"],
 "data": [
  ["Nc1nc2cc(-c3ccc4ncc(C(=O)N5CCOCC5)n4c3)ccc2o1", "µg/mL", 2.18]
]}

* * *

Measurement notes: pH-dependent dissolution profile (equilibrium solubility) of ART-001 in buffers pH 1 to 10, HPLC
Format: physicochemical
Cond: citrate buffer, aqueous buffer, thermodynamic from solid; room temperature; start pH 3.17, end pH 3.33; read-out: Solubility

{"columns": ["Smiles entry", "solubility (µg/mL)"],
 "data": [
  ["Nc1nc2cc(-c3ccc4ncc(C(=O)N5CCOCC5)n4c3)ccc2o1", 36.8]
]}

* * *

Measurement notes: pH-dependent dissolution profile (equilibrium solubility) of ART-001 in buffers pH 1 to 10, HPLC
Assay type: physicochemical
Cond: phosphate buffer, aqueous buffer, thermodynamic from solid; room temperature; start pH 1.04, end pH 1.33; read-out: Solubility

{"columns": ["Compound", "solubility / µg/mL"],
 "data": [
  ["Nc1nc2cc(-c3ccc4ncc(C(=O)N5CCOCC5)n4c3)ccc2o1 [ART-001, Serabelisib]", 1140]
]}

* * *

Measurement notes: pH-dependent dissolution profile (equilibrium solubility) of ART-001 in buffers pH 1 to 10, HPLC
Assay type: physicochemical
Cond: citrate buffer, aqueous buffer, thermodynamic from solid; room temperature; start pH 5.03, end pH 5.2; read-out: Solubility
Method: The dissolution profile of ART-001 in various pH environments was tested by the following procedure. […] After centrifugation at 1000 rpm for 10 minutes, the supernatant was collected and measured by HPLC. The pH at the beginning and end of dissolution were also measured and recorded.

{"columns": ["Smiles entry", "solubility [µg/mL]"],
 "data": [
  ["Nc1nc2cc(-c3ccc4ncc(C(=O)N5CCOCC5)n4c3)ccc2o1", 1.7]
]}

* * *

Measurement notes: pH-dependent dissolution profile (equilibrium solubility) of ART-001 in buffers pH 1 to 10, HPLC
Assay type: physicochemical
Cond: citrate buffer, aqueous buffer, thermodynamic from solid; room temperature; start pH 4.00, end pH 4.19; read-out: Solubility
Experimental endpoint: solubility (µg/mL)

{"columns": ["Smiles entry", "Observed value"],
 "data": [
  ["Nc1nc2cc(-c3ccc4ncc(C(=O)N5CCOCC5)n4c3)ccc2o1", 5.7]
]}

* * *

Measurement notes: pH-dependent dissolution profile (equilibrium solubility) of ART-001 in buffers pH 1 to 10, HPLC
Format: physicochemical
Cond: boric acid buffer, aqueous buffer, thermodynamic from solid; room temperature; start pH 9.00, end pH 9.16; read-out: Solubility

{"columns": ["Compound", "solubility [µg/mL]"],
 "data": [
  ["Nc1nc2cc(-c3ccc4ncc(C(=O)N5CCOCC5)n4c3)ccc2o1 [ART-001, Serabelisib]", 1.3]
]}
